Reference for the values: patent US20130130288A1

- experimental_target: T1, amyloid β-derived diffusible ligands (ADDLs), oligomers of Aβ1-42
- T1 construct: number of copies not defined; also called Aβ oligomers; Aβ oligomer
- assay_remarks: three-pronged Aβ ELISA (M90/1 polyclonal capture); ratio of binding to ADDLs over monomeric Aβ
Kindly supply the reported ADDL:Monomer values for the records listed here.
The reply should contain only the number, in ratio.

Look up ADDL:Monomer for this binder: anti-ADDL antibody 11.4 (antibody, V domains shown) VH: EVQLVESGGGLVQPGGSLRLSCAASGFTFSSFGMHWVRQAPGKGLEWVAYISRGSSTIYYADTVKGRFTISRDNAKNSLYLQMNSLRAEDTAVYYCARGITTALDYWGQGTLVTVSS VL: DVVMTQSPLSLPVTPGEPASISCRSSQSIVHSNGNTYLEWYLQKPGQSPQLLIYKASNRFSGVPDRFSGSGSGTDFTLKISRVEAEDVGVYYCFQGSRVPVRFGQGTKLEIKR
2.4

Any idea what its ADDL:Monomer is? The binder is anti-ADDL antibody 17.1 (antibody, V domains shown) VH: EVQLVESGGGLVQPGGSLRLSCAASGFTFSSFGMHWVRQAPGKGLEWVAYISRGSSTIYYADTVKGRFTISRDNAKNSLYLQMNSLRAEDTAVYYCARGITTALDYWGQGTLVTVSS VL: DVVMTQSPLSLPVTPGEPASISCRSSQSIVHSNGNTYLEWYLQKPGQSPQLLIYKASNRFSGVPDRFSGSGSGTDFTLKISRVEAEDVGVYYCFQGSRVPASFGQGTKLEIKR
3.2

Quick one: ADDL:Monomer for anti-ADDL antibody 13.1 (antibody, V domains shown) VH: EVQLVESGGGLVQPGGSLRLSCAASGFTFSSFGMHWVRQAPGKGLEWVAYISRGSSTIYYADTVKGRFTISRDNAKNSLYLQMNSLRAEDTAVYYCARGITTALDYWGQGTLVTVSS VL: DVVMTQSPLSLPVTPGEPASISCRSSQSIVHSNGNTYLEWYLQKPGQSPQLLIYKASNRFSGVPDRFSGSGSGTDFTLKISRVEAEDVGVYYCFQGSKAHPSFGQGTKLEIKR ?
2.4

Please look up its ADDL:Monomer: anti-ADDL antibody 19.3 (antibody, V domains shown) VH: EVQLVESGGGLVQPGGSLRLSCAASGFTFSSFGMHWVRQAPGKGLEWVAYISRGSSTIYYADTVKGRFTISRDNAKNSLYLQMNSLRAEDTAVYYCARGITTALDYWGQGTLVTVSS VL: DVVMTQSPLSLPVTPGEPASISCRSSQSIVHSNGNTYLEWYLQKPGQSPQLLIYKASNRFSGVPDRFSGSGSGTDFTLKISRVEAEDVGVYYCFQGSRLGPSFGQGTKLEIKR
2.5

Entry anti-ADDL antibody 14.2 (antibody, V domains shown) VH: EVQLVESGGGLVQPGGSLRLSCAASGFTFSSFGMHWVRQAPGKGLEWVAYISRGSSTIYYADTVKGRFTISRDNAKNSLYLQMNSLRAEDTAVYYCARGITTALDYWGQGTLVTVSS VL: DVVMTQSPLSLPVTPGEPASISCRSSQSIVHSNGNTYLEWYLQKPGQSPQLLIYKASNRFSGVPDRFSGSGSGTDFTLKISRVEAEDVGVYYCFQGSRVPPGFGQGTKLEIKR has what ADDL:Monomer?
4.2
